Target: T1, LSH1-DBD M1-L166 (Arabidopsis thaliana, UniProt Q6NNI3 1-166)
T1 sequence: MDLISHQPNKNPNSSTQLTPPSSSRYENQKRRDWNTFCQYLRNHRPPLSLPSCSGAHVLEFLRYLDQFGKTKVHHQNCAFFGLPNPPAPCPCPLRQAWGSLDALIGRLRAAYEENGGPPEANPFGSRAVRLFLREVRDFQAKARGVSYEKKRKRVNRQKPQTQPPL
Experiment: EMSA
readoutKind: Kd

The recorded Kd for WT ALOG motif probe (perfect motif) (dsDNA) DNA 1: GCGTAGTTTACTGTTGACGTAG DNA 2: CTACGTCAACAGTAAACTACG is < 50 nM
